System: Cryptococcus bacillisporus
Assay: MIC broth microdilution (CLSI)
Type: cell-based
Conditions: Cryptococcus bacillisporus NIH179
The label is Satisfied for MIC / MEC below 1 µg/mL and Not satisfied for MIC / MEC equal to or exceeding 1 µg/mL.

• C[C@@H](c1ncncc1F)[C@](O)(Cn1cncn1)c1ccc(F)cc1F = Satisfied
• CCC(C)n1ncn(-c2ccc(N3CCN(c4ccc(OCC5COC(Cn6cncn6)(c6ccc(Cl)cc6Cl)O5)cc4)CC3)cc2)c1=O (stereo not drawn) = Satisfied

Please determine if CCCCCCCCCCn1cc[n+](CC(O)(P(=O)(O)O)P(=O)(O)O)c1 [10-ZOL, Decyl-zoledronate] is below 1 µg/mL in terms of MIC / MEC.
Not satisfied

Please determine if C[C@@H]1[C@H](O)[C@@H](C)/C=C/C=C/C=C/C=C/C=C/C=C/C=C/[C@H](O[C@@H]2O[C@H](C)[C@@H](O)[C@H](N)[C@@H]2O)C[C@@H]2O[C@](O)(C[C@@H](O)C[C@@H](O)[C@H](O)CC[C@@H](O)C[C@@H](O)CC(=O)O[C@H]1C)C[C@H](O)[C@H]2C(=O)O is below 1 µg/mL in terms of MIC / MEC.
Satisfied

Please determine if CC[C@H](C)C[C@H](C)CCCCCCCCC(=O)N[C@H]1C[C@@H](O)[C@@H](NCCN)NC(=O)[C@@H]2[C@@H](O)CCN2C(=O)[C@H]([C@H](O)CCN)NC(=O)[C@H]([C@H](O)[C@@H](O)c2ccc(O)cc2)NC(=O)[C@@H]2C[C@@H](O)CN2C(=O)[C@H]([C@@H](C)O)NC1=O is below 1 µg/mL in terms of MIC / MEC.
Not satisfied

Please determine if Nc1nc(=O)[nH]cc1F is below 1 µg/mL in terms of MIC / MEC.
Not satisfied

Please determine if CC(=O)N1CCN(c2ccc(OCC3COC(Cn4ccnc4)(c4ccc(Cl)cc4Cl)O3)cc2)CC1 (stereo not drawn) is below 1 µg/mL in terms of MIC / MEC.
Satisfied

Please determine if O=P(O)(O)C(O)(Cn1ccnc1)P(=O)(O)O [ZOL, zoledronate] is below 1 µg/mL in terms of MIC / MEC.
Not satisfied

###

Give INH MICc (KET:INH) for every item shown.
Test system: Aspergillus flavus
Assay: checkerboard drug interaction (FICI, MICc);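 note: simplified diagonal checkerboard screen pairing azole antifungals with FPPS inhibitors, FICI calculated under the Loewe additivity model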
Assay type: cell-based
Set-up: unit not given beside the values
Settings: A. flavus; MIC of the inhibitor in combination with ketoconazole
Give bare numbers.

Example entries and their recorded answers appear below.
* CCCCCCCCCN1CCC[C@H]1C(=O)N[C@@H](CC(=O)O)C(=O)O | 128
* CCCCCCCCCCCCN1CCC[C@H]1C(=O)N[C@H](CC(=O)O)C(=O)O | 128
* CCCCCCCCCCCN1CCC[C@H]1C(=O)N[C@H](CC(=O)O)C(=O)O | 64
* CCCCCCCCCCN1CCC[C@H]1C(=O)N[C@H](CC(=O)OC)C(=O)OC | 8
* CCCCCCCCCN1CCC[C@H]1C(=O)N[C@H](CC(=O)O)C(=O)O | 128

Provide INH MICc (KET:INH) values for the following items, in order.
1. CCCCCCCCCCCN1CCC[C@H]1C(=O)N[C@H](CC(=O)OC)C(=O)OC
2. CCCCCCCCCN1CCC[C@H]1C(=O)N[C@@H](CC(=O)OC)C(=O)OC
3. CCCCCCCCCN1CCC[C@H]1C(=O)N[C@H](CC(=O)OC)C(=O)OC
4. O=P(O)(O)C(O)(Cn1ccnc1)P(=O)(O)O [ZOL, zoledronate]

1. 16
2. 128
3. 128
4. 128

The measured values listed here are drawn from paper PMC12892976.
